Quick list: Emax per entry.
EXPERIMENTAL TARGET: human FGFR1c + KLB receptor complex on HEK293 iLite FGF21 reporter cells (human, UniProt P11362 22-822; Q86Z14 1-1044)
Sequence (P11362 22-822, chain 1 of 2): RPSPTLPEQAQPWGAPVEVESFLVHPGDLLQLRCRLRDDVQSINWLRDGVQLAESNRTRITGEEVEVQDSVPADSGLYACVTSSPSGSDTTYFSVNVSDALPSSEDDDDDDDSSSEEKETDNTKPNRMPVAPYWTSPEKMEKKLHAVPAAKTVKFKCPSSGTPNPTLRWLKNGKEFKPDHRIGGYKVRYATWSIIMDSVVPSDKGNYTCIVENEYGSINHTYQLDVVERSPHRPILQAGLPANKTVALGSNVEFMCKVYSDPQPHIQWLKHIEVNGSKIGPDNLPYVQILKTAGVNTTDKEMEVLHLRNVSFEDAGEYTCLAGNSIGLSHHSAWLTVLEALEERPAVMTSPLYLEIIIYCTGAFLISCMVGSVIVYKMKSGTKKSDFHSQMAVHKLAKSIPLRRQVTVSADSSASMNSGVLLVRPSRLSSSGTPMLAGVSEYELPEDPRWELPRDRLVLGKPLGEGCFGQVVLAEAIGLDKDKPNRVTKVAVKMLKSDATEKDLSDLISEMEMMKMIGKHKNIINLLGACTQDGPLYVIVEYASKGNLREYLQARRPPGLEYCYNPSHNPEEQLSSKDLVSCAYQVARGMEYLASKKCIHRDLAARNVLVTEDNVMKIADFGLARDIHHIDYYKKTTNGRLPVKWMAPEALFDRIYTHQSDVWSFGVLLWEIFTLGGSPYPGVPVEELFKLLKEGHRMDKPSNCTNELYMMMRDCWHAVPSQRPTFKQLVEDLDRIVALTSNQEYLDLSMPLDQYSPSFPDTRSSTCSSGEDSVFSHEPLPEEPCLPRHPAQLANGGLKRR
Sequence (Q86Z14 whole entry, chain 2 of 2): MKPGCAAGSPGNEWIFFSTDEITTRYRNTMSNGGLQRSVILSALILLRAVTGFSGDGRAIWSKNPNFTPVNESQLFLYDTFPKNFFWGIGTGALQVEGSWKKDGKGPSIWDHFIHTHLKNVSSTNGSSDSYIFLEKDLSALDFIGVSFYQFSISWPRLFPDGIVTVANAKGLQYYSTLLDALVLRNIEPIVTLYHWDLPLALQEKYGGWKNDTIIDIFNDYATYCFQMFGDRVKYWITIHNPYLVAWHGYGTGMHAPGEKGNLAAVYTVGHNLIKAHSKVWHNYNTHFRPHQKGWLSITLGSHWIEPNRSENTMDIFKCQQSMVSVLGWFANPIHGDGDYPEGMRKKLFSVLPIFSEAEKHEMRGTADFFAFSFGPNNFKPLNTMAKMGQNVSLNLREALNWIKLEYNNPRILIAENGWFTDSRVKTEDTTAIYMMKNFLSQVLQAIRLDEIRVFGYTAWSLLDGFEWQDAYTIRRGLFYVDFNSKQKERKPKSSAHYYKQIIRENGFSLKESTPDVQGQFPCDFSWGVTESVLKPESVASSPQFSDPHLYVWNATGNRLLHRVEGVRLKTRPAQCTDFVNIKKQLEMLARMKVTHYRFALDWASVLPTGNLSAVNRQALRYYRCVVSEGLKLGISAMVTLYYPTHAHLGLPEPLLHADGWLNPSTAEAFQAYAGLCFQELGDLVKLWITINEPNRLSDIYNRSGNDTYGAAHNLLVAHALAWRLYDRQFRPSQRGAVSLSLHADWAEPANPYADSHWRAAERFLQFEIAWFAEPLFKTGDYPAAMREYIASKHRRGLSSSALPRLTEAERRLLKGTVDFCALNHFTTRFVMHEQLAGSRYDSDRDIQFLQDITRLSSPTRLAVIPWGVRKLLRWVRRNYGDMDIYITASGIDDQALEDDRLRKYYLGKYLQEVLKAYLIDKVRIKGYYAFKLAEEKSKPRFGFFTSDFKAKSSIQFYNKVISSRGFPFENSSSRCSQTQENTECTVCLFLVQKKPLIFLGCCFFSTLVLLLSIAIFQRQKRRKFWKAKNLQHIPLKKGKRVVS
PROTOCOL: cell-based or functional assay
Kindly provide the numeric value in % only, without the unit symbol.

A selection of reference data follows.
BINDER | VALUE UNITS | Emax
Ab0305 (antibody, IgG4, V domains shown) VH: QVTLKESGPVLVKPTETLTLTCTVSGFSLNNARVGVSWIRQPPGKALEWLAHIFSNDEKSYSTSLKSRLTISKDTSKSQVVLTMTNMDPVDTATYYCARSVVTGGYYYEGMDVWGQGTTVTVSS VL: SYVLTQPPSVSVAPGQTARITCGGSNIGSESVHWYQQKPGQAPVLVVYYESDRPSGIPERFSGSNSGNTATLTISRVEAGDEADYYCQVWTGNSDHVVFGGGTKLTVLG | % | 647
Ab0304 (antibody, IgG4, V domains shown) VH: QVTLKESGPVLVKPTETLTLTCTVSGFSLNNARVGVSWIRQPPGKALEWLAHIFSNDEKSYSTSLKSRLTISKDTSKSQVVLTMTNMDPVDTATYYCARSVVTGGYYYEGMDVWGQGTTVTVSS VL: SYVLTQPPSVSVAPGQTARITCGGNNIGSESVHWYQQKPGQAPVLVVYYESDRPSGIPERFSGSNSGNTATLTISRVEAGDEADYYCQVWTGNSDHVVFGGGTKLTVLG | % | 686

Consider now this further binder.
Can you share its Emax? I mean this binder: Ab0334 (antibody, IgG4, V domains shown) VH: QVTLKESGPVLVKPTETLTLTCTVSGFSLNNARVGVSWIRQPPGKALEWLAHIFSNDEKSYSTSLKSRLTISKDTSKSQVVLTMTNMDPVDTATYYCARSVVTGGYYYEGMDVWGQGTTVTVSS VL: SYVLTQPPSVSVAPGQTARITCGGSNIGSESVHWYQQKPGQAPVLVVYSASDRPSGIPERFSGSNSGNTATLTISRVEAGDEADYYCQVWAGSSDHVVFGGGTKLTVLG
718
